# Target Or Test System: UniProt:P24941
# Test Method Notes: Enzyme Assay
# Assay Conditions: concentration not given here
Readout: inhibition (%)

Use the examples below as a reference point.
Molecule | Measurement Units | inhibition
Nc1cc(C(=O)N2CCC(Nc3nc(N)c(C(=O)c4c(F)cccc4F)s3)CC2)ccc1Cl | % | 50
Nc1nc(NC2CCN(C(=O)c3ccc(CO)cc3)CC2)sc1C(=O)c1c(F)cccc1F | % | 47
CC1CCCC(C(=O)N2CCC(Nc3nc(N)c(C(=O)c4c(F)cccc4F)s3)CC2)C1 (stereo not given) | % | 74
C[C@H]1CC[C@H](C(=O)N2CCC(Nc3nc(N)c(C(=O)c4c(F)cccc4F)s3)CC2)CC1 | % | 65
C[C@@H](O)CC(=O)N1CCC(Nc2nc(N)c(C(=O)c3c(F)cccc3F)s2)CC1 | % | 72
Nc1nc(NC2CCN(C(=O)Cc3sc(O)nc3O)CC2)sc1C(=O)c1c(F)cccc1F | % | 58
Nc1nc(NC2CCN(C(=O)CSc3ccccc3F)CC2)sc1C(=O)c1c(F)cccc1F | % | 75

(A) Nc1nc(NC2CCN(C(=O)C(O)c3cc(F)ccc3F)CC2)sc1C(=O)c1c(F)cccc1F (stereo not given)
(B) N#Cc1ccc(NCC(=O)N2CCC(Nc3nc(N)c(C(=O)c4c(F)cccc4F)s3)CC2)cc1
(C) COCCOCCOCC(=O)N1CCC(Nc2nc(N)c(C(=O)c3c(F)cccc3F)s2)CC1
**Q:** Returns the items ordered by inhibition, from maximum to minimum. Labels, ranked as asked.
**A:** A, C, B
(A: 57%, C: 38%, B: 22%)
